Documented inhibition at 1 µM across a set of molecules
- Tested on: Hep G2 cells
- method: Apolipoprotein B secretion inhibitory activity (sandwich ELISA of culture supernatant)
- Assay type: cell-based
- test.conditions: Homo sapiens, HepG2, test compound 1 μM
property.name: inhibition at 1 µM (%)

> print(dat)
                                   molecule  target.system  reported.relation  observed.measurement
1  C=CCN(CC(F)(F)F)C(=O)C1(CCCCN2CCN(c3ccc4c(c3)C(=O)N(Cc3ccccc3)CC4)CC2)c2ccccc2-c2ccccc21   Hep G2 cells                  =                    80
2  CC(C)N(C(=O)c1cccc(N2CCN(CCC(c3ccccc3)c3ccccc3)CC2)c1)C(C)C   Hep G2 cells                  =                    92
3  O=C1c2cc(N3CCN(CCCCC4(C(=O)NCC(F)(F)F)c5ccccc5-c5ccccc54)CC3)ccc2CCN1CC1CCCCO1 (centres unmarked)   Hep G2 cells                  ≥                    80
4  O=c1c2cc(N3CCN(CCC(c4ccccc4)c4ccccc4)CC3)ccc2cnn1Cc1ccccc1   Hep G2 cells                  =                    70
5  O=C1c2cc(N3CCN(CCC(c4ccccc4)c4ccccc4)CC3)ncc2CCN1Cc1ccccc1   Hep G2 cells                  =                    84

meta.source: patent US6777414B1
